Ref: ChEMBL document CHEMBL2218924

This section presents compounds with their documented residual activity values.
# target-or-test-system: Fibroblast growth factor receptor 2 (Homo sapiens)
# particulars: at 10 µM

- test-smiles: "O=C(O)/C=C/c1cc(Br)c(Br)c(Br)c1Br"
  residual activity, %: 94
- test-smiles: "Nc1nc(Nc2ccc(S(N)(=O)=O)cc2)nn1C(=O)c1c(F)cccc1F"
  residual activity, %: 7
- test-smiles: "Cn1c2ccccc2c2c3c(c4c5ccccc5n(CCC#N)c4c21)CNC3=O"
  residual activity, %: 46
- test-smiles: "NC(=O)c1ccc(-c2nc(-c3ccc4c(c3)OCCO4)c(-c3ccccn3)[nH]2)cc1"
  residual activity, %: 82
- test-smiles: "COc1ccc2c(c1)c(C1=C(c3c[nH]c4ccccc34)C(=O)NC1=O)cn2CCCN(C)C"
  residual activity, %: 18
- test-smiles: "CCN(CC)CCNC(=O)c1c(C)[nH]c(/C=C2\\C(=O)Nc3ccc(Cl)cc32)c1C"
  residual activity, %: 3
- test-smiles: "O=C(c1cc2cc(O)ccc2[nH]1)c1cc2cc(O)ccc2[nH]1"
  residual activity, %: 24
- test-smiles: "N#C/C(=C\\c1ccc(O)c(O)c1)C(=O)NCc1ccccc1"
  residual activity, %: 120
- test-smiles: "NC(=O)Nc1sc(-c2ccc(F)cc2)cc1C(N)=O"
  residual activity, %: 10
- test-smiles: "CC(C)c1nn(-c2c(Cl)cccc2Cl)c2nc(Cc3ccc(OCCO)cc3)[nH]c(=O)c12"
  residual activity, %: 86
- test-smiles: "Nc1ncnc2[nH]nc(Nc3ccc(F)cc3)c12"
  residual activity, %: 60
- test-smiles: "COc1cc2ncnc(Nc3cccc(Cl)c3)c2cc1OC"
  residual activity, %: 66
- test-smiles: "O=c1cc(N2CCOCC2)oc2c1ccc1ccccc12"
  residual activity, %: 101
